Reported values of GFP response vs DMSO for individual entries
# test: TOR pathway GLN3 branch reporter MEP2-GFP changes – S. cerevisiae, multiplex flow cytometry, primary screen (AID 1867);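 further: median GFP channel fluorescence of barcode-gated MEP2-GFP cells measured by flow cytometry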
# details: S. cerevisiae MEP2-GFP strain, 3 h, at 10 µM, stronger effect = higher value, 100% means same as DMSO wells
Records with an inconclusive call do not appear.
assay readout: GFP response vs DMSO (%)

INSERT INTO measurements (compound, experimental_value) VALUES
  ('Cc1ccc2occ(C(=O)c3ccco3)c(=O)c2c1', 101),
  ('CCC(=O)O[C@]1(C(=O)CCl)[C@@H](C)C[C@H]2[C@@H]3CCC4=CC(=O)C=C[C@]4(C)[C@@]3(F)[C@@H](O)C[C@@]21C', 103),
  ('COc1cc(C2C(C(C)=O)=C(O)C(=O)N2c2ccc(C)cc2)ccc1O (centres undefined)', 104),
  ('CCOC(=O)C1C(=O)OC(C)(C)C1C(C)C(=O)c1ccc(C)cc1 (centres undefined)', 103),
  ('CN1CCN(CC/C=C2/c3ccccc3Sc3ccc(S(=O)(=O)N(C)C)cc32)CC1', 109),
  ('CO[C@@]1(NC(=O)Cc2cccs2)C(=O)N2C(C(=O)O)=C(COC(N)=O)CS[C@@H]21', 130),
  ('COC(=O)C1=C(C)NC(C)=C([N+](=O)[O-])C1c1ccccc1C(F)(F)F (centres undefined)', 110),
  ('COc1ccc(CN(CCC(c2ccccc2)c2ccc(OC(C)C)cc2)C(=O)CCl)cc1OC (centres undefined)', 98.3),
  ('C#C[C@]1(O)CC[C@H]2[C@@H]3CCc4cc(OC)ccc4[C@H]3CC[C@@]21C', 104);

----------
# tgt: Integrin beta-1 (Homo sapiens) + Integrin alpha-4 (Homo sapiens) (UniProt P13612+P05556)
# Sequence (P05556 whole entry, looked up): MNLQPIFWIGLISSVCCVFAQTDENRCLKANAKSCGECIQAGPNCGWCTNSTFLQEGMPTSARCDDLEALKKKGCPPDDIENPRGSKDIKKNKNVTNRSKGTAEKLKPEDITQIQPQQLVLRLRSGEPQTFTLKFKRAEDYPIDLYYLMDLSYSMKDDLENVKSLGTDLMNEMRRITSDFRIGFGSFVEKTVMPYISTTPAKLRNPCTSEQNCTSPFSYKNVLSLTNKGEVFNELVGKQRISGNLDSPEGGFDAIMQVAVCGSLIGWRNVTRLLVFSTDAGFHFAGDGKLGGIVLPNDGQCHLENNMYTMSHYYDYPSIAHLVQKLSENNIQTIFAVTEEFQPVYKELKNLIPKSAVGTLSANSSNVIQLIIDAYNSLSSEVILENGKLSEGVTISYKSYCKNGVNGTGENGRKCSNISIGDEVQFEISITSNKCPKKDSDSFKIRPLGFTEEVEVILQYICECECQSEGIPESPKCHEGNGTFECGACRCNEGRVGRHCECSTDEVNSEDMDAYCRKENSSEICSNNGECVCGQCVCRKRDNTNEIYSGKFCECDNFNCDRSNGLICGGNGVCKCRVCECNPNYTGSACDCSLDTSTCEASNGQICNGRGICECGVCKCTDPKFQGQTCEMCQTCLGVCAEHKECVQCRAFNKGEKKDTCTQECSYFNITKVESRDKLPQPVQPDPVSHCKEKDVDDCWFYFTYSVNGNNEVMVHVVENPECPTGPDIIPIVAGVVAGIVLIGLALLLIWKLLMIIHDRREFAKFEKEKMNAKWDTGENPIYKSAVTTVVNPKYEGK
# Sequence (P13612 whole entry, looked up): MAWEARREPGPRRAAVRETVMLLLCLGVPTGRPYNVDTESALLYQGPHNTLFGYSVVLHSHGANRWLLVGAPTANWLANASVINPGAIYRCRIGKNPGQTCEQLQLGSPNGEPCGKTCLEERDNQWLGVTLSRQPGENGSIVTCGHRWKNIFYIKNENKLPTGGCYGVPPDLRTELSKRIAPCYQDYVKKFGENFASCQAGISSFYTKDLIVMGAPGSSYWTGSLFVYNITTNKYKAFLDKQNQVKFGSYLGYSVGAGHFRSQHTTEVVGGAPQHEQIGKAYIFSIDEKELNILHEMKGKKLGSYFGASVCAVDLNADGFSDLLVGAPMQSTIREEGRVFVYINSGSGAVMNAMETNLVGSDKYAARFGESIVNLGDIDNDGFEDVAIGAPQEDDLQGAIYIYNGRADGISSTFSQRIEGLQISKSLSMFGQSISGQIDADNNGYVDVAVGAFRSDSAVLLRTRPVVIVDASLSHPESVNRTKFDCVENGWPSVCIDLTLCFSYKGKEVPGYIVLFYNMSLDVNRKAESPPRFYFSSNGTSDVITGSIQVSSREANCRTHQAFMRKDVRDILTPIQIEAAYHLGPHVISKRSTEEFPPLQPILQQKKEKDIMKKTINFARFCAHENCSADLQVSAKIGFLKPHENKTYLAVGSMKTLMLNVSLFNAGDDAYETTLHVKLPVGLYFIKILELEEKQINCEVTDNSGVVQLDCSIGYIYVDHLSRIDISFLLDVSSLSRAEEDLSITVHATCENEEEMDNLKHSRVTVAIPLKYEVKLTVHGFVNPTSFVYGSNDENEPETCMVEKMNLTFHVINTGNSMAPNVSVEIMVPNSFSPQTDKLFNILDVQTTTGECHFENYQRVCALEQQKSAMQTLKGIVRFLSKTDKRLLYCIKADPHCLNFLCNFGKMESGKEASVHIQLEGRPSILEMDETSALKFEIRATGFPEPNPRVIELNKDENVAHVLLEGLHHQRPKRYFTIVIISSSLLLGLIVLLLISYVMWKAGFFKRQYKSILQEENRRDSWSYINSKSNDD
# test: alpha4beta1 integrin LIBS antibody binding reduction – U937 cells, HUTS-21 mAb, flow cytometry, validation set, VLA-4 allosteric modulator project, pilot screen (AID 2674);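 further: antibody binding induced by the VLA-4 ligand LDV present at three times its Kd; 0% = LDV ligand with antibody and no compound and 100% = antibody without LDV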
# details: HUTS-21 LIBS mAb binding, at 6.7 µM, stronger effect = higher value, binding induced by LDV ligand
assay readout: inhibition (%)

INSERT INTO measurements (compound, experimental_value) VALUES
  ('CCCc1cc(=O)[nH]c(=S)[nH]1', -2.43),
  ('COc1ccc(NC(=O)Nc2ccc(C(C)C)cc2)cc1', 20.4),
  ('Nc1nc2c(nc(SCc3ccccc3Br)n2C2OC(CO)C(O)C2O)c(=O)[nH]1 (centres undefined)', -1.79),
  ('COC1CCN(C(=O)c2ccc(OC3CCN(Cc4ccccn4)CC3)cc2)CC1', 9.13),
  ('COc1cccc(OCC(O)CO)c1 (centres undefined)', 0.94),
  ('CCOC(=O)C1=C(C)NC(C)=C(C(=O)OC)C1c1cccc(Cl)c1Cl (centres undefined)', 5.49),
  ('CC(C)(C)NCC(O)COc1ccccc1C(=O)CCc1ccccc1 (centres undefined)', 44),
  ('COC(=O)c1ccc(-c2ncc(-c3cccc4ccccc34)o2)cc1', -29.2),
  ('CCCC(CCC)C(=O)OC1C[C@H]2CC[C@@H](C1)[N+]2(C)C (some centres undefined)', 14.2);

----------
# tgt: Integrin beta-1 (Homo sapiens) + Integrin alpha-4 (Homo sapiens) (UniProt P13612+P05556)
# test: alpha4beta1 integrin LIBS antibody binding reduction – U937 cells, HUTS-21 mAb, flow cytometry, validation set, VLA-4 allosteric modulator project, pilot screen (AID 2674);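 further: antibody binding induced by the VLA-4 ligand LDV present at three times its Kd; 0% = LDV ligand with antibody and no compound and 100% = antibody without LDV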
# details: HUTS-21 LIBS mAb binding, at 6.7 µM, stronger effect = higher value, binding induced by LDV ligand
Reported values of inhibition for individual entries
assay readout: inhibition (%)

INSERT INTO results (compound, tgt, experimental_value) VALUES
  ('C/C(CCc1oc2ccc(Cl)cc2c1-c1ccc(C)o1)=N\O', 'Integrin beta-1 (Homo sapiens) + Integrin alpha-4 (Homo sapiens) (UniProt P13612+P05556)', -16.4),
  ('Cc1ccc2ncnc(NCCCCCC(=O)O)c2c1', 'Integrin beta-1 (Homo sapiens) + Integrin alpha-4 (Homo sapiens) (UniProt P13612+P05556)', 8.29),
  ('CCNC(=O)C(Cc1ccccc1)NC(=O)OCc1ccccc1 (stereo unspecified)', 'Integrin beta-1 (Homo sapiens) + Integrin alpha-4 (Homo sapiens) (UniProt P13612+P05556)', 19.3),
  ('O=C(CN1C(=O)c2ccccc2C1=O)Nc1cccc([N+](=O)[O-])c1', 'Integrin beta-1 (Homo sapiens) + Integrin alpha-4 (Homo sapiens) (UniProt P13612+P05556)', -18.5),
  ('CC(C)N(Cc1nccn1C)C(=O)CC1C(=O)NCCN1Cc1ccccc1C(F)(F)F (stereo unspecified)', 'Integrin beta-1 (Homo sapiens) + Integrin alpha-4 (Homo sapiens) (UniProt P13612+P05556)', 4.27),
  ('CCCCN1C[C@H](O)[C@@H](O)[C@H](O)[C@H]1CO', 'Integrin beta-1 (Homo sapiens) + Integrin alpha-4 (Homo sapiens) (UniProt P13612+P05556)', 13.4);

Sourced from PubChem BioAssay
